study_system: XBP1 (Homo sapiens, UniProt P17861)
Construct: made in house
Sequence (P17861 70-133 limits assumed): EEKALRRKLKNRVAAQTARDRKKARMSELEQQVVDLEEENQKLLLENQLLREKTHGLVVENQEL
test_summary: Direct-binding FRET assay
condition_details: 23°C; N-terminal rhodamine design; repeat 3; read-out: Kd
Where no end group is shown, it is not given here.
measured_endpoint: Kd

                              sequence_data  reported_measurement
0  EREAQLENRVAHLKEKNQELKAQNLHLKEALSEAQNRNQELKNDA [XBP1-d1]             > 1000 nM

* * *

study_system: ATF6B (Homo sapiens)
Sequence (Q99941 325-388 limits assumed): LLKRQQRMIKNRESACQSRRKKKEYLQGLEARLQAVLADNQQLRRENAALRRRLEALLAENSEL
test_summary: Direct-binding FRET assay
Design: made in house
condition_details: 23°C; C-terminal rhodamine design; repeat 2; read-out: Kd
Where no end group is shown, it is not given here.
measured_endpoint: Kd

>>> print(df.to_string())
                              sequence_data  measured_endpoint  reported_measurement
0  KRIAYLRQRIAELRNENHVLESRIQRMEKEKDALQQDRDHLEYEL [ATF5-d1]                 Kd                > 5 µM

Every entry's value here was drawn from paper PMC4335062.
